# experimentalDetails: in vitro
# conditionParameters: dog, MDCK cells
# Description: Selectivity index, ratio of CTD50 for dog MDCK cells to IC50 for Influenza A virus (A/Puerto Rico/8/34 (H1N1)) pdm09 infected in MDCK cells
metric: selectivity ratio

Take a look at these entries with their results.
[
  {
    "compound": "CC1(C)[C@@H]2CC[C@@]1(C)/C(=N/CCSC1=NCCS1)C2",
    "selectivity ratio": 23
  },
  {
    "compound": "NC12CC3CC(CC(C3)C1)C2",
    "selectivity ratio": 4
  },
  {
    "compound": "CC1(C)[C@@H]2CC[C@@]1(C)/C(=N/CCN1CCCC1)C2",
    "selectivity ratio": 106
  },
  {
    "compound": "CC1(C)[C@@H]2CC[C@@]1(C)/C(=N/CCSc1nc3ccccc3[nH]1)C2",
    "selectivity ratio": 20
  }
]

Which selectivity ratio reading was recorded for the compound CC1(C)[C@@H]2CC[C@@]1(C)/C(=N/CCN1CCC(O)CC1)C2 ? 1

Which selectivity ratio reading was recorded for the compound CC1(C)[C@@H]2CC[C@@]1(C)/C(=N/CCO)C2 ? 500

Which selectivity ratio reading was recorded for the compound CC(N)C12CC3CC(CC(C3)C1)C2 (centres undefined) ? 5

Which selectivity ratio reading was recorded for the compound CC1(C)[C@@H]2CC[C@@]1(C)/C(=N/CCN1CCCCC1)C2 ? 43

Which selectivity ratio reading was recorded for the compound CC1(C)[C@@H]2CC[C@@]1(C)/C(=N/CCSc1ccccn1)C2 ? 91
